Entries with their measured Ki, system GST-Bcl-2 (Homo sapiens (Human)):
Unit nM implied. Number only.

CC1(C)CCC(CN2CCN(c3ccc(C(=O)NS(=O)(=O)c4ccc(NCC5CCOCC5)c([N+](=O)[O-])c4)c(Oc4cccc5c4CC(=O)N5)c3)CC2)=C(c2ccc(Cl)cc2)C1
0.042

Now turn to the next compound.
[in] Observed Ki on GST-Bcl-2 (Homo sapiens (Human)) for `CC1(C)CCC(CN2CCN(c3ccc(C(=O)NS(=O)(=O)c4ccc(NCCCN5CCCC5)c([N+](=O)[O-])c4)c(Oc4cccc(Cl)c4F)c3)CC2)=C(c2ccc(Cl)cc2)C1` , please.
Sequence (P10415 whole entry): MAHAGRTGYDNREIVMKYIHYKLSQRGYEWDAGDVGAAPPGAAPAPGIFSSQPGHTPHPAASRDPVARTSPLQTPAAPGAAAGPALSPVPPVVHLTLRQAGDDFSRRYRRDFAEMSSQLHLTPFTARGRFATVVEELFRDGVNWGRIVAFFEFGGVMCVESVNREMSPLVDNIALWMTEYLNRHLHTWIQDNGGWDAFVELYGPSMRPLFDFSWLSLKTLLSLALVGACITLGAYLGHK
[out] 0.03
